experimental.protocol: Cytotoxicity against HEL cells assessed as alteration in cell morphology after 3 days by microscopic analysis
Assay type: cell-based
condition.set: human
Here, each record is paired with measured MCC at 72 h data.

Some compounds with known MCC at 72 h results, for comparison:
Nc1nc2c(ncn2COCCO)c(=O)[nH]1 | > 444 µM
Nc1ncnc2c1ncn2[C@@H]1C[C@H](OCP(=O)(O)O)C[C@H]1O | > 303 µM
Nc1nc2c(ncn2[C@@H]2C[C@H](OCP(=O)(O)O)C[C@H]2O)c(=O)[nH]1 | > 289 µM

IN: Determine from records and report MCC at 72 h for Nc1nc2c(ncn2[C@@H]2C[C@H](OCP(=O)(O)O)[C@@H](O)C2)c(=O)[nH]1
OUT: > 289 µM

IN: Consider the compound Nc1ncnc2c1ncn2[C@@H]1C[C@H](OCP(=O)(O)O)[C@@H](O)C1 and give its recorded MCC at 72 h.
OUT: > 303 µM

IN: Input Nc1ccn([C@@H]2C[C@H](OCP(=O)(O)O)C[C@H]2O)c(=O)n1 , output reported MCC at 72 h.
OUT: > 327 µM
